target-or-test-system: human PPARalpha (Homo sapiens, UniProt Q07869)
Construct: amino acids S167-Y468; plasmid pcDNA3
Sequence (Q07869 167-468): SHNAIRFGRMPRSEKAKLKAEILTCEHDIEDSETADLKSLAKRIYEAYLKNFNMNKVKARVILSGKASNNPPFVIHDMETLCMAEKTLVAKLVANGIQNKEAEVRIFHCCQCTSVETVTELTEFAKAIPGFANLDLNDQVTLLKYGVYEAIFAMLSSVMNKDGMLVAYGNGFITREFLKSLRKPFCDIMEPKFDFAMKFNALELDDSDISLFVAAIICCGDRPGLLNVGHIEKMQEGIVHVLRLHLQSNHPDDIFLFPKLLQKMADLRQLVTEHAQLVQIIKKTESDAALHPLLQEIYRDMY
measurement-protocol: Cellular PPARalpha assay (human GAL4 luciferase reporter, stably transfected HEK cell line)
metric: EC50 (nM)

# molecular-string, EC50 (nM)
records = [
    ("CN(CCO)Cc1nc(-c2ccc(C(F)(F)F)cc2)sc1COc1ccc(-c2noc(=O)[nH]2)c(F)c1", 1190),
    ("COc1ccc(-c2nc(COc3ccc(-c4noc(=O)[nH]4)c(C)c3)c(CN3CCOCC3)o2)cc1", 1200),
    ("Cc1nc(COCc2ccccc2)oc1COc1ccc(-c2noc(=O)[nH]2)c(Cl)c1", 2190),
    ("COc1cc(OCc2sc(-c3ccc(C(F)(F)F)cc3)nc2CCCN2CCSCC2)ccc1-c1noc(=O)[nH]1", 483),
    ("COc1cc(OCc2sc(-c3ccc(C(F)(F)F)cc3)nc2CN2CCC(C(F)(F)F)CC2)ccc1-c1noc(=O)[nH]1", 830),
]

I. COc1cc(OCc2sc(-c3ccc(C(F)(F)F)cc3)nc2CSC)ccc1-c1noc(=O)[nH]1
II. Cc1cc(OCc2sc(-c3ccc(C(F)(F)F)cc3)nc2CNCCN2CCOCC2)ccc1-c1noc(=O)[nH]1
Given the listed items, does I or II have the lesser reported EC50? Pick one and reply with its label.
II
(II: 1210 nM, I: 2620 nM)

----------
target-or-test-system: human PPARdelta (Homo sapiens, UniProt Q03181)
Construct: amino acids S139-Y441; plasmid pcDNA3
Sequence (Q03181 139-441): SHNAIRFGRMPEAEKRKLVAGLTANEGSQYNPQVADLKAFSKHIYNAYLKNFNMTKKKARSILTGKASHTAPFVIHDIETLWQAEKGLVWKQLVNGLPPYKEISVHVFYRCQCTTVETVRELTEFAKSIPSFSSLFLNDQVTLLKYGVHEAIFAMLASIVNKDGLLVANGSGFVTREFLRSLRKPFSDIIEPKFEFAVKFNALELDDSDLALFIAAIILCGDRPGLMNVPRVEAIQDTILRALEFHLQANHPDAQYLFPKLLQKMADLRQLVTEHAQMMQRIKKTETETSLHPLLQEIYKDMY
measurement-protocol: Cellular PPARdelta assay (human GAL4 luciferase reporter, stably transfected HEK cell line)
metric: EC50 (nM)

Illustrative cases are given below, each with its answer.
# molecule, target-or-test-system, unit-info, EC50
measured = [
    ("COCc1nc(/C=C/c2ccc(OC)cc2)oc1COc1ccc(-c2noc(=O)[nH]2)c(Cl)c1", "human PPARdelta (Homo sapiens, UniProt Q03181)", "nM", 3),
    ("O=c1[nH]c(-c2ccc(OCc3sc(-c4ccc(C(F)(F)F)cc4)nc3CN3CCC(C(F)(F)F)CC3)cc2OC(F)F)no1", "human PPARdelta (Homo sapiens, UniProt Q03181)", "nM", 18),
    ("O=c1[nH]c(-c2ccc(OCc3sc(-c4ccc(C(F)(F)F)cc4)nc3COCCC3CCCCC3)cc2Cl)no1", "human PPARdelta (Homo sapiens, UniProt Q03181)", "nM", 12),
]

I. COc1cc(OCc2sc(-c3ccc(C(F)(F)F)cc3)nc2CCCS(C)(=O)=O)ccc1-c1noc(=O)[nH]1
II. COc1cc(OCc2sc(-c3ccc(C(F)(F)F)cc3)nc2CCCN2CCSCC2)ccc1-c1noc(=O)[nH]1
III. COc1cc(OCc2sc(-c3ccc(C(F)(F)F)cc3)nc2CN2CCC(C(F)(F)F)C2)ccc1-c1noc(=O)[nH]1 (racemic)
IV. COc1cc(OCc2sc(-c3ccc(C(F)(F)F)cc3)nc2CSC)ccc1-c1noc(=O)[nH]1
Number of molecules to sort: 4. Sort criterion: EC50, ascending. Order the labels as requested and give them as your answer.
II, I, III, IV
(II: 8 nM, I: 22 nM, III: 56 nM, IV: 153 nM)

Values from patent US7851493B2
